Values compiled from ChEMBL document CHEMBL1125366.

target: Integrin alpha-IIb/beta-3 (Homo sapiens) (UniProt P05106+P08514); test: Inhibition of fibrinogen binding to immobilized fibrinogen receptor; format: protein-complex assay; parameters: reference not given here
observable: Ratio
Number only, please.

Solved cases (4 shown):
[[record]]
compound = "COC(=O)COc1ccc(CCNC(=O)c2ccc(C(=N)N)cc2)cc1"
endpoint_value = 0.45

[[record]]
compound = "CN(CC(=O)c1ccc(OCC(=O)O)c(OCC(=O)O)c1)C(=O)c1ccc(C(=N)N)cc1"
endpoint_value = 0.0001

[[record]]
compound = "C[C@@H](Cc1ccc(OCC(=O)O)cc1)NS(=O)(=O)c1ccc(C(=N)N)cc1"
endpoint_value = 0.34

[[record]]
compound = "C[C@@H](NC(=O)c1ccc(C(=N)N)cc1)C(=O)N1CCC(OCC(=O)O)CC1"
endpoint_value = 0.007


We now examine a further compound.
Query: Fill in reported Ratio for this entry: N=C(N)c1ccc(C(=O)N[C@@H](CCCN)C(=O)N2CCC(OCC(=O)O)CC2)cc1
Reply: 0.009

###

Items are presented alongside their recorded log10 of IC50.
assay: Inhibition of platelet aggregation in human-platelet rich plasma(h-PRP) induced by collagen; assay type: functional
Would you kindly interpret these values as log10 of IC50 expressed in nM?

Solved cases (4 shown):
[[record]]
input_smiles = "N=C(N)c1ccc(C(=O)NCC(=O)N2CCC(OCC(=O)O)CC2)cc1"
observable = "log10 of IC50"
endpoint_value = 2.00

[[record]]
input_smiles = "COC(=O)COc1ccc(C[C@H](C)NS(=O)(=O)c2ccc(C(=N)N)cc2)cc1"
observable = "log10 of IC50"
endpoint_value = 4.04

[[record]]
input_smiles = "N=C(N)c1ccc(C(=O)NCCC(=O)N[C@@H](CC(=O)O)C(=O)N[C@@H](Cc2ccccc2)C(=O)O)cc1"
observable = "log10 of IC50"
endpoint_value = 1.78

[[record]]
input_smiles = "N=C(N)c1ccc(C(=O)NCCC(=O)NCCC(=O)O)cc1"
observable = "log10 of IC50"
endpoint_value = 2.95


We now examine a further molecule.
Query: Fill in reported log10 of IC50 for this entry: N=C(N)c1ccc(C(=O)NCC(=O)c2ccc(OCC(=O)O)cc2)cc1
Reply: 2.11

###

assay: Inhibition of platelet aggregation in human-platelet rich plasma(h-PRP) induced by collagen; type: functional
Peptide text beside a SMILES is read from it.
Labelling: IC50 reported below 20 µM becomes true (1); at or above becomes false (0).

Example entries begin here.
[[record]]
molecule = "CC(C)[C@H](NC(=O)[C@H](CC(=O)O)NC(=O)CNC(=O)COc1ccc(C(=N)N)cc1)C(=O)O"
class_label = "true (1)"

[[record]]
molecule = "CC(C)[C@H](NC(=O)[C@H](CC(=O)O)NC(=O)CNC(=O)[C@@H](N)CCCNC(=N)N)C(=O)O (H-RGDV-OH)"
class_label = "false (0)"

[[record]]
molecule = "C[C@@H](NC(=O)c1ccc(C(=N)N)cc1)C(=O)N1CCC(OCC(=O)O)CC1"
class_label = "true (1)"

[[record]]
molecule = "N=C(N)c1ccc(CC(N)C(=O)Nc2cccc(C(=O)NCCC(=O)O)c2)cc1 (stereo unspecified)"
class_label = "false (0)"

[[record]]
molecule = "C[C@H](Cc1ccc(OCC(=O)O)cc1)NS(=O)(=O)c1ccc(C(=N)N)cc1"
class_label = "false (0)"


Query: # strict comparison: is reported IC50 < 20 µM? input = C[C@H](NC(=O)c1ccc(C(=N)N)cn1)C(=O)N1CCC(OCC(=O)O)CC1
Reply: true (1)

Query: # strict comparison: is reported IC50 < 20 µM? input = NC(N)=NCCC[C@H](N)C(=O)Nc1cccc(C(=O)NCCC(=O)O)c1
Reply: false (0)

###

Items are presented alongside their recorded Ratio.
biological target: Integrin alpha-V/beta-3 (Homo sapiens) (UniProt P05106+P06756); test: Inhibition of fibrinogen binding to immobilized vitronectin receptor; assay type: protein-complex assay; set-up: reference not given here
Peptide text beside a SMILES is read from it.
Number only, please.

[[record]]
compound = "N=C(N)c1ccc(C(=O)NCC(=O)N[C@@H](CC(=O)O)C(=O)N[C@@H](Cc2ccccc2)C(=O)O)cc1"
observable = "Ratio"
endpoint_value = 570

[[record]]
compound = "COc1ccc(CCNC(=O)[C@H](CC(=O)O)NC(=O)CCNC(=O)c2ccc(C(=N)N)cc2)cc1"
observable = "Ratio"
endpoint_value = 8000

[[record]]
compound = "N=C(N)c1ccc(C(=O)NCCCCC(=O)N[C@@H](CC(=O)O)C(=O)N[C@@H](Cc2ccccc2)C(=O)O)cc1"
observable = "Ratio"
endpoint_value = 280


We now examine a further compound.
Query: Fill in reported Ratio for this entry: N=C(N)NCCC[C@H](N)C(=O)NCC(=O)N[C@@H](CC(=O)O)C(=O)N[C@@H](Cc1ccccc1)C(=O)O (H-RGDF-OH)
Reply: 3.5

###

Items are presented alongside their recorded IC50.
assay: Inhibition of platelet aggregation in human-platelet rich plasma(h-PRP) induced by collagen; type: functional
Square brackets hold non-standard residues; d marks the D form. Peptide text beside a SMILES is read from it. * marks the point of attachment. 3Abz = Nc1cccc(C(=O)O)c1; Boc = CC(C)(C)OC(=O)*
Number only, in nM; omit the unit.

Query: Fill in reported IC50 for this entry: CC(C)[C@H](NC(=O)[C@H](CC(=O)O)NC(=O)c1cccc(NC(=O)[C@H](CCCN=C(N)N)NC(=O)OC(C)(C)C)c1)C(=O)O (Boc-R[3Abz]DV-OH)
Reply: 7000

Query: Fill in reported IC50 for this entry: COC(=O)COc1ccc(CCNC(=O)c2ccc(C(=N)N)cc2)cc1
Reply: 300

Query: Fill in reported IC50 for this entry: N=C(N)c1ccc(C(=O)NCC(=O)c2ccc(OCC(=O)O)cc2)nc1
Reply: 20

Query: Fill in reported IC50 for this entry: N=C(N)c1ccc(C(=O)NCC(=O)N[C@@H](CC(=O)O)C(=O)N[C@@H](Cc2ccccc2)C(=O)O)cc1
Reply: 76000

Query: Fill in reported IC50 for this entry: N=C(N)c1ccc(C(=O)Nc2cccc(C(=O)NCCC(=O)O)c2)cc1
Reply: 400

###

assay: Inhibition of platelet aggregation in human-platelet rich plasma(h-PRP) induced by collagen; type: functional
Items are presented alongside their recorded IC50.
Number only, in nM; omit the unit.

[[record]]
input_smiles = "CC(C)[C@H](NC(=O)[C@H](CC(=O)O)NC(=O)CNC(=O)Cc1ccc(C(=N)N)cc1)C(=O)O"
unit_abbreviation = "nM"
endpoint_value = 500

[[record]]
input_smiles = "CC(C)[C@H](NC(=O)[C@H](CC(=O)O)NC(=O)CCCNC(=O)c1ccc(C(=N)N)cc1)C(=O)O"
unit_abbreviation = "nM"
endpoint_value = 700

[[record]]
input_smiles = "N=C(N)c1ccc(C(=O)N[C@@H](CCCN)C(=O)N2CCC(OCC(=O)O)CC2)cc1"
unit_abbreviation = "nM"
endpoint_value = 70


We now examine a further compound.
Query: Fill in reported IC50 for this entry: CN(CC(=O)c1ccc(OCC(=O)O)c(OCC(=O)O)c1)C(=O)c1ccc(C(=N)N)cc1
Reply: 70

###

molecular target: Integrin alpha-V/beta-3 (Homo sapiens) (UniProt P05106+P06756); test: Inhibition of fibrinogen binding to immobilized vitronectin receptor; type: protein-complex assay; set-up: reference not given here
observable: Ratio

Solved cases (3 shown):
[[record]]
input_smiles = "N=C(N)c1ccc(C(=O)N[C@@H](CCCN)C(=O)N2CCC(OCC(=O)O)CC2)cc1"
study_system = "Integrin alpha-V/beta-3 (Homo sapiens) (UniProt P05106+P06756)"
observable = "Ratio"
endpoint_value = "> 30000"

[[record]]
input_smiles = "C[C@@H](NC(=O)c1ccc(C(=N)N)cc1)C(=O)N1CCC(OCC(=O)O)CC1"
study_system = "Integrin alpha-V/beta-3 (Homo sapiens) (UniProt P05106+P06756)"
observable = "Ratio"
endpoint_value = "> 9000"

[[record]]
input_smiles = "N=C(N)c1ccc(C(=O)N[C@@H](CC(=O)O)C(=O)N2CCC(OCC(=O)O)CC2)cc1"
study_system = "Integrin alpha-V/beta-3 (Homo sapiens) (UniProt P05106+P06756)"
observable = "Ratio"
endpoint_value = "> 30000"


We now examine a further molecule.
Query: Fill in reported Ratio for this entry: N=C(N)c1ccc(C(=O)NCC(=O)c2ccc(OCC(=O)O)cc2)nc1
Reply: > 20000

###

molecular target: Integrin alpha-IIb/beta-3 (Homo sapiens) (UniProt P05106+P08514); experiment: Inhibition of fibrinogen binding to immobilized fibrinogen receptor; format: protein-complex assay; set-up: reference not given here
Peptide text beside a SMILES is read from it.
Ratio vs 0.004: at or above is satisfied, below is not satisfied.

Example entries begin here.
[[record]]
molecule = "C[C@H](NC(=O)c1ccc(C(=N)N)cc1)C(=O)N1CCC(OCC(=O)O)CC1"
study_system = "Integrin alpha-IIb/beta-3 (Homo sapiens) (UniProt P05106+P08514)"
class_label = "not satisfied"

[[record]]
molecule = "CC(C)(Oc1ccc(CCNS(=O)(=O)c2ccc(C(=N)N)cc2)cc1)C(=O)O"
study_system = "Integrin alpha-IIb/beta-3 (Homo sapiens) (UniProt P05106+P08514)"
class_label = "satisfied"

[[record]]
molecule = "CC(C)[C@H](NC(=O)[C@H](CC(=O)O)NC(=O)CNC(=O)Cc1ccc(C(=N)N)cc1)C(=O)O"
study_system = "Integrin alpha-IIb/beta-3 (Homo sapiens) (UniProt P05106+P08514)"
class_label = "not satisfied"

[[record]]
molecule = "N=C(N)c1ccc(C(=O)N2CCC[C@H]2C(=O)N2CCC(OCC(=O)O)CC2)cc1"
study_system = "Integrin alpha-IIb/beta-3 (Homo sapiens) (UniProt P05106+P08514)"
class_label = "not satisfied"

[[record]]
molecule = "COc1ccc(CCNC(=O)[C@H](CC(=O)O)NC(=O)CCNC(=O)c2ccc(C(=N)N)cc2)cc1"
study_system = "Integrin alpha-IIb/beta-3 (Homo sapiens) (UniProt P05106+P08514)"
class_label = "not satisfied"


Query: Would you say C[C@@]1(C(=O)N2CCC(OCC(=O)O)CC2)CCCN1C(=O)c1ccc(C(=N)N)cc1 shows Ratio at minimum 0.004?
Reply: satisfied

Query: Would you say N=C(N)NCCC[C@H](N)C(=O)NCC(=O)N[C@@H](CC(=O)O)C(=O)N[C@@H](Cc1ccccc1)C(=O)O (H-RGDF-OH) shows Ratio at minimum 0.004?
Reply: satisfied

Query: Would you say N=C(N)c1ccc(S(=O)(=O)NCCc2ccc(OCC(=O)O)cc2)cc1 shows Ratio at minimum 0.004?
Reply: satisfied

Query: Would you say N=C(N)c1ccc(C(=O)NCCC(=O)N[C@@H](CC(=O)O)C(=O)N[C@@H](Cc2ccc(O)cc2)C(=O)O)cc1 shows Ratio at minimum 0.004?
Reply: not satisfied
